TARGET_OR_SYSTEM: Thromboxane-A synthase (Rattus norvegicus)
ASSAY_SUMMARY: In vitro inhibition of thromboxane B2 production in rat whole blood.
REPORTED_PROPERTY: IC50

Here's what some known entries look like.
COMPOUND: CCO/C(O)=C1\C(COCCN)=NC(C)=C(C(=O)OC)C1c1cccc(-n2ccnc2)c1 (centres undefined)
IC50: 300 nM
--
COMPOUND: CCOC(=O)c1c(C)nc(C)c(C(=O)OCC)c1-c1cccc(-n2ccnc2)c1
IC50: > 1000 nM
--
COMPOUND: CCO/C(O)=C1\C(C)=NC(C)=C(C(=O)O)C1c1cccc(-n2ccnc2)c1 (centres undefined)
IC50: > 1000 nM
--
COMPOUND: CC1=NC(C)=C(C(=O)OCC(C)C)C(c2cccc(-c3cccnc3)c2)/C1=C(\O)OCC(C)C (centres undefined)
IC50: > 1000 nM
--
COMPOUND: CCOC(=O)C1=C(C)N=C(C)/C(=C(/O)OCC)C1c1cccc(-c2cccnc2)c1 (centres undefined)
IC50: 280 nM

Record CCOC(=O)C1=C(CC)N=C(CC)/C(=C(/O)OCC)C1c1cccc(-n2ccnc2)c1 (centres undefined) , field IC50: > 1000 nM

Record CCOC(=O)C1=C(C)N=C(C)/C(=C(/O)OCC)C1c1cccc(Cn2ccnc2)c1 (centres undefined) , field IC50: 730 nM

Record COC(=O)C1=C(C)NC(C)=C(C(=O)OC)C1c1ccccc1[N+](=O)[O-] [NIFEDIPINE] , field IC50: > 10000 nM

Record CCOC(=O)C1=C(C)N=C(C)/C(=C(/O)OCC)C1c1ccccc1-n1ccnc1 (centres undefined) , field IC50: > 1000 nM

###

TARGET_OR_SYSTEM: Thromboxane-A synthase (Rattus norvegicus, UniProt P49430)
Sequence (P49430 whole entry): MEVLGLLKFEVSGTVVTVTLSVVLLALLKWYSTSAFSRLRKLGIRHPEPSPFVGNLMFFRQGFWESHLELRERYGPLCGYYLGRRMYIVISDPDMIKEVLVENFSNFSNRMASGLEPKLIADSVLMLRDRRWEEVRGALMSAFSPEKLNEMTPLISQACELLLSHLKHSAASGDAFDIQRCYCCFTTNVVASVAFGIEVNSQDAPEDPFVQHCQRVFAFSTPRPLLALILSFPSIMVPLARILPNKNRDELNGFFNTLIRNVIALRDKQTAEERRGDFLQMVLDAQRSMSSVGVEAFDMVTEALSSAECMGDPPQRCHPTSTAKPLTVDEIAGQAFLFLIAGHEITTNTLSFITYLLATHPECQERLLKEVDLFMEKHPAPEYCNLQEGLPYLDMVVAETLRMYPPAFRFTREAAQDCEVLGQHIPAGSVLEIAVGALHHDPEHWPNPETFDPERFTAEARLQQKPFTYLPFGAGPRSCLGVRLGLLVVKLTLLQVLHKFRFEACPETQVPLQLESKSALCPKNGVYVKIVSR
ASSAY_SUMMARY: In vitro inhibition of thromboxane B2 production in rat whole blood.
REPORTED_PROPERTY: pIC50
Scale note: pIC50 = -log10(concentration in M).

Here's what some known entries look like.
COMPOUND: CCO/C(O)=C1\C(C)=NC(C)=C(C(=O)OC)C1c1cccc(-n2ccnc2)c1 (centres undefined)
TARGET_OR_SYSTEM: Thromboxane-A synthase (Rattus norvegicus, UniProt P49430)
REPORTED_PROPERTY: pIC50
RECORDED_RESULT: 6.62
--
COMPOUND: CCOC(=O)C1=C(C)N=C(C)/C(=C(/O)OCC)C1c1cccc(-n2ccnc2)c1 (centres undefined)
TARGET_OR_SYSTEM: Thromboxane-A synthase (Rattus norvegicus, UniProt P49430)
REPORTED_PROPERTY: pIC50
RECORDED_RESULT: 6.77
--
COMPOUND: CCO/C(O)=C1\C(C)=NC(C)=C(C(=O)OCCN(C)Cc2ccccc2)C1c1cccc(-n2ccnc2)c1 (centres undefined)
TARGET_OR_SYSTEM: Thromboxane-A synthase (Rattus norvegicus, UniProt P49430)
REPORTED_PROPERTY: pIC50
RECORDED_RESULT: 6.66

Tested system Thromboxane-A synthase (Rattus norvegicus, UniProt P49430); pIC50 recorded for CCO/C(O)=C1\C(COC)=NC(C)=C(C(=O)OC)C1c1cccc(-n2ccnc2)c1 (centres undefined) was 6.40

Tested system Thromboxane-A synthase (Rattus norvegicus, UniProt P49430); pIC50 recorded for COC(=O)C1=C(C)N=C(C)/C(=C(/O)OC)C1c1cccc(-n2ccnc2)c1 (centres undefined) was 6.57

Tested system Thromboxane-A synthase (Rattus norvegicus, UniProt P49430); pIC50 recorded for CO/C(O)=C1\C(C)=NC(C)=C(C(C)=O)C1c1cccc(-n2ccnc2)c1 (centres undefined) was 6.59

Tested system Thromboxane-A synthase (Rattus norvegicus, UniProt P49430); pIC50 recorded for CCOC(=O)C1=C(C)N(C)C(C)=C(C(=O)OCC)C1c1cccc(-n2ccnc2)c1 was 6.19
